The measurements presented in this section are drawn from ChEMBL document CHEMBL3826956.

Recorded pIC50 for the following molecules
- targetOfAssay: Acetylcholinesterase (Electrophorus electricus, UniProt O42275)
- Sequence (O42275 whole entry): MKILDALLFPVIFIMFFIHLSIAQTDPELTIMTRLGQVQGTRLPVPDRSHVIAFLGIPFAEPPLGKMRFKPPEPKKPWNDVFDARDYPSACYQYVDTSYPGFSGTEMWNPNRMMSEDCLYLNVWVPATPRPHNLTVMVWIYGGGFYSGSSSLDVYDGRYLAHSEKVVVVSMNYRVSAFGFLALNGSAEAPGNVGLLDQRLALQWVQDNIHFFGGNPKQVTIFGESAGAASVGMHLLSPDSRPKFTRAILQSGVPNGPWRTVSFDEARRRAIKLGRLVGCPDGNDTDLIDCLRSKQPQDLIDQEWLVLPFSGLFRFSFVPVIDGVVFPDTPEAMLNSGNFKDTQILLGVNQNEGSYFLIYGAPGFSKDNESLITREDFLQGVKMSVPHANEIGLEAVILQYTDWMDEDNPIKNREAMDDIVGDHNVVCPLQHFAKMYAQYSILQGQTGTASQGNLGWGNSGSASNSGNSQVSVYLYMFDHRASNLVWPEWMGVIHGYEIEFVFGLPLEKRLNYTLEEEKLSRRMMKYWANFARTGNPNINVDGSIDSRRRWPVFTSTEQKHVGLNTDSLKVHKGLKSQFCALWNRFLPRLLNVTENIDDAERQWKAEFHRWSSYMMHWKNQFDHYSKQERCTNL
// returns pIC50 (minus log10 of molar concentration), number only

Worked examples follow.
{"columns": ["molecule", "targetOfAssay", "pIC50"],
 "data": [
  ["COc1ccc(C[C@H]2c3cc(O)c(OC)cc3CCN2C)cc1O [(S)-RETICULINE]", "Acetylcholinesterase (Electrophorus electricus, UniProt O42275)", 3.52],
  ["COc1ccc(C2=C(c3ccc(O)cc3)CN3CCC[C@@H]3C2)cc1OC", "Acetylcholinesterase (Electrophorus electricus, UniProt O42275)", 3.70]
]}

q: Query: pIC50; subject: COc1cc2c3c(c1OC)-c1cc4c(cc1C[C@@H]3NCC2)OCO4
a: 3.69

* * *

- targetOfAssay: Cholinesterase (Equus caballus)
- Sequence (P81908 whole entry): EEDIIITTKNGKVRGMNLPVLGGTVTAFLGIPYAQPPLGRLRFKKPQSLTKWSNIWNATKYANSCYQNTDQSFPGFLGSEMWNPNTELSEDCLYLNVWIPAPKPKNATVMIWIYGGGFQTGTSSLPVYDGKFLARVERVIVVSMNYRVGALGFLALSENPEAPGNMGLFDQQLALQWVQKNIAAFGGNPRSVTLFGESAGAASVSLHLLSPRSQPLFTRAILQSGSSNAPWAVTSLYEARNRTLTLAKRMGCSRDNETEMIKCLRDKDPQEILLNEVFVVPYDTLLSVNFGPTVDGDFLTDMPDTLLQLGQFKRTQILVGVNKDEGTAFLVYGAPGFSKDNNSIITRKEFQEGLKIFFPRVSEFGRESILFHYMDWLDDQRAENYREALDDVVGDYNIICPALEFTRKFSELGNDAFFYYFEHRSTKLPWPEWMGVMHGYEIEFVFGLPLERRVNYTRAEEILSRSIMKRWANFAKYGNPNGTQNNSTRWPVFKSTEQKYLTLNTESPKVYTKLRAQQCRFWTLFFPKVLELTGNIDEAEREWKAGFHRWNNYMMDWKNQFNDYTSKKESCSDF
- experimentNotes: Mixed-type inhibition of equine serum BChE preincubated for 15 mins followed by addition of S-butyrylthiocholine chloride as substrate measured after 30 mins by Lineweaver-Burk plot analysis
metricName: pKi
// returns pKi (minus log10 of molar concentration), number only

q: Query: pKi; subject: COc1c(OC)c(OC)c2c(ccc3ccccc32)c1CCN(C)C
a: 5.17

* * *

- targetOfAssay: Acetylcholinesterase (Electrophorus electricus) (UniProt O42275)
- Sequence (O42275 24-633 limits assumed): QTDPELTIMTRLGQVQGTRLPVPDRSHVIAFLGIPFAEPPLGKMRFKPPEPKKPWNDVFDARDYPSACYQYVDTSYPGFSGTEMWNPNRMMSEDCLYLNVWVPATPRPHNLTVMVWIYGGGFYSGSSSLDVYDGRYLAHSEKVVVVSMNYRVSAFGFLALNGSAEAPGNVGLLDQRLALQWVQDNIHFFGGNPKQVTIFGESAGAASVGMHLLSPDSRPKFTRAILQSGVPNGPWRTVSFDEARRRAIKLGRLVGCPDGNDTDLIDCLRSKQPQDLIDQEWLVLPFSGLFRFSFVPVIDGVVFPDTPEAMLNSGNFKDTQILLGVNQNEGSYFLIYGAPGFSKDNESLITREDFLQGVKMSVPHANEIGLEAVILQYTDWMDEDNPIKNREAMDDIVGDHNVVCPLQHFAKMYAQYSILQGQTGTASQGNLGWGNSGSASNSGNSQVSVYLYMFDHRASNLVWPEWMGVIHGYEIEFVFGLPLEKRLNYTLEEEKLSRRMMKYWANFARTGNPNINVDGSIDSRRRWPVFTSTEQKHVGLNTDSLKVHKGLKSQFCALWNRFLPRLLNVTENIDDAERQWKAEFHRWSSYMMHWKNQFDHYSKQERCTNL
- experimentNotes: Inhibition of electric eel AChE at 100 ug/ml preincubated for 15 mins followed by addition of acetylthiocholine iodide as substrate measured after 30 mins by Ellman's microplate assay
Recorded inhibition for the following molecules
Write the answer as a number in %, unit excluded.

Worked examples follow.
{"columns": ["molecule", "uom", "inhibition"],
 "data": [
  ["COc1cc2c(cc1O)C[C@@H]1NCCc3cc(OC)c(OC)c-2c31", "%", 17.5],
  ["COc1ccc(C[C@H]2c3cc(O)c(OC)cc3CCN2C)cc1O [(S)-RETICULINE]", "%", 53]
]}

Now look at this one.
q: Query: inhibition; subject: COc1cc2c3c(c1OC)-c1cc4c(cc1C[C@@H]3NCC2)OCO4
a: 50.4

* * *

Recorded inhibition for the following compounds
- targetOfAssay: Acetylcholinesterase (Electrophorus electricus) (UniProt O42275)
- experimentNotes: Inhibition of electric eel AChE at 100 ug/ml preincubated for 15 mins followed by addition of acetylthiocholine iodide as substrate measured after 30 mins by Ellman's microplate assay
Write the answer as a number in %, unit excluded.

q: Query: inhibition; subject: COc1ccc(C2=C(c3ccc(O)cc3)CN3CCC[C@@H]3C2)cc1OC
a: 51.4

q: Query: inhibition; subject: COc1cc2c3c(c1O)C1(CCC(O)CC1)CC3NCC2 (stereo unspecified)
a: 27.9

q: Query: inhibition; subject: COc1cc2c(cc1O)C[C@H]1c3c(cc(OC)c(OC)c3-2)CCN1C
a: 38.8

q: Query: inhibition; subject: COc1c(OC)c(OC)c2c(ccc3ccccc32)c1CCN(C)C
a: 31.6

q: Query: inhibition; subject: COc1cc2c(cc1O)CCN(C)C2Cc1ccc(O)cc1 (stereo unspecified)
a: 14.9

q: Query: inhibition; subject: COc1cc(CCN(C)C)c2ccc3ccccc3c2c1OC
a: 2.06

* * *

- targetOfAssay: Cholinesterase (Equus caballus)
- experimentNotes: Inhibition of equine serum BChE at 100 ug/ml preincubated for 15 mins followed by addition of S-butyrylthiocholine chloride as substrate measured after 30 mins by Ellman's microplate assay
# if value of inhibition reaches 60%, tag yes (1); if it stays below, tag no (0)

Observe how each entry below is paired with its result.
{"columns": ["molecule", "labelClass"],
 "data": [
  ["COc1cc2c(cc1O)C[C@@H]1NCCc3cc(OC)c(OC)c-2c31", "no (0)"],
  ["COc1c(OC)c(OC)c2c(ccc3ccccc32)c1CCN(C)C", "yes (1)"],
  ["COc1ccc(C[C@H]2c3cc(O)c(OC)cc3CCN2C)cc1O [(S)-RETICULINE]", "yes (1)"],
  ["COc1cc2c(cc1O)CCN(C)C2Cc1ccc(O)cc1 (centres undefined)", "no (0)"],
  ["COc1cc(CCN(C)C)c2ccc3ccccc3c2c1OC", "yes (1)"],
  ["COc1cc2c3c(c1O)C1(CCC(O)CC1)CC3NCC2 (centres undefined)", "no (0)"],
  ["COc1cc2c3c(c1OC)-c1cc4c(cc1C[C@@H]3NCC2)OCO4", "yes (1)"]
]}

Pending molecule:
q: Evaluate COc1cc2c(cc1O)C[C@H]1c3c(cc(OC)c(OC)c3-2)CCN1C : inhibition at minimum 60%?
a: no (0)
